# Tested on: KAI3 (IL-2 2.5 ng/mL)
# TEST_DESCRIPTION: percent inhibition of viability; higher = more inhibition;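 note: normalised to DMSO-only wells as negative and benzethonium chloride as positive control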
# CONDITION_DESCRIPTION: 72 h; 10 nM
Answer each item with its documented percent inhibition of viability.
One number for each entry, in %.

These recorded examples may help you get a feel for the data.
MOLECULE | MEASURED_TARGET | READING_UNIT | VALUE
NS(=O)(=O)OC[C@@H]1C[C@@H](n2ccc3c(N[C@H]4CCc5ccccc54)ncnc32)C[C@@H]1O [Pevonedistat] (max concentration tested 10000 nM) | KAI3 (IL-2 2.5 ng/mL) | % | 12.4
Nc1nc(Cl)nc2c1ncn2[C@@H]1O[C@H](CO)[C@@H](O)[C@@H]1F [Clofarabine] (max concentration tested 10000 nM) | KAI3 (IL-2 2.5 ng/mL) | % | 2
c1ccc(Cn2c(-c3ccc(OC[C@H](C4CCNCC4)n4c(-c5ccccc5)nc5ccccc54)cc3)nc3ccccc32)cc1 [deltarasin] (max concentration tested 10000 nM) | KAI3 (IL-2 2.5 ng/mL) | % | 6.95
CN1CCN(c2nc(C3=C(c4c[nH]c5ccccc45)C(=O)NC3=O)c3ccccc3n2)CC1 [Sotrastaurin] (max concentration tested 10000 nM) | KAI3 (IL-2 2.5 ng/mL) | % | 5.93

Asked: Which percent inhibition of viability is reported for this molecule? CN[C@@H](C)C(=O)N[C@H]1CN(C(=O)CC(C)C)CC[C@H]2CC[C@@H](C(=O)NC(c3ccccc3)c3ccccc3)N2C1=O [AT-406] (max concentration tested 10000 nM)
Given back: -9.34

---

# System: normal primary NK cells, pool 1 (3 donors), resting (IL-2 0 ng/mL)
# TEST_DESCRIPTION: percent inhibition of viability; higher = more inhibition
# CONDITION_DESCRIPTION: 72 h; 10 nM
Answer each item with its documented percent inhibition of viability.
Give bare numbers, in %.

These recorded examples may help you get a feel for the data.
COMPOUND | READING_UNIT | percent inhibition of viability
CCn1c(C(=O)N(C2CC2)C2CC2)cc2c3c(ncn3C)c(Nc3cc(C)n(C)n3)nc21 (max concentration tested 10000 nM) | % | -4.84
Nc1nc(Cl)nc2c1ncn2[C@@H]1O[C@H](CO)[C@@H](O)[C@@H]1F [Clofarabine] (max concentration tested 10000 nM) | % | 61.1
CC(C)(C)NC(=O)[C@H]1CC[C@H]2[C@@H]3CC[C@H]4NC(=O)C=C[C@]4(C)[C@H]3CC[C@]12C [Finasteride] (max concentration tested 10000 nM) | % | 14
Cc1ccc(-n2nc(C(C)(C)C)cc2NC(=O)Nc2ccc(OCCN3CCOCC3)c3ccccc23)cc1 [Doramapimod] (max concentration tested 10000 nM) | % | -4.02
CC(C)n1cnc2c(NCCc3ccc(O)cc3)nc(-c3csc4ccccc34)nc21 [StemRegenin 1] (max concentration tested 10000 nM) | % | -11.1

Quick request: percent inhibition of viability for each listed item, please.
1. CCCc1cc(C)[nH]c(=O)c1CNC(=O)c1cc(-c2ccnc(N3CCN(C)CC3)c2)cc2c1cnn2C(C)C [GSK343] (max concentration tested 10000 nM)
2. N#CC1(c2ccc(NC(=O)c3cccnc3NCc3ccncc3)cc2)CCCC1 [Apatinib] (max concentration tested 10000 nM)
3. Nc1nc(Nc2ccc3c(c2)CC[C@@H](N2CCCC2)CC3)nn1-c1cc2c(nn1)-c1ccccc1CCC2 [BGB324] (max concentration tested 10000 nM)
4. Cn1c(=O)n(-c2ccc(C(C)(C)C#N)cc2)c2c3cc(-c4cnc5ccccc5c4)ccc3ncc21 [Dactolisib] (max concentration tested 1000 nM)
5. CC[C@]1(O)C[C@H]2CN(CCc3c([nH]c4ccccc34)[C@@](C(=O)OC)(c3cc4c(cc3OC)N(C=O)[C@H]3[C@@](O)(C(=O)OC)[C@H](OC(C)=O)[C@]5(CC)C=CCN6CC[C@]43[C@@H]65)C2)C1 [Vincristine] (max concentration tested 1000 nM)
6. C[C@@H](C(=O)O)c1ccc(-c2ccccc2)c(F)c1 [Tarenflurbil] (max concentration tested 10000 nM)
7. CN(C)CCN1C(=O)c2cccc3cc(N)cc(c23)C1=O [Amonafide] (max concentration tested 10000 nM)

Given back:
1: -4.24; 2: 4.05; 3: 3.63; 4: 24.7; 5: 11; 6: 18.2; 7: -15.8

Sourced from the supplement of paper PMC5908809
